# credit: ChEMBL document CHEMBL5233205

measuredTarget: Programmed cell death 1 ligand 1 (Homo sapiens)
Sequence (Q9NZQ7 whole entry): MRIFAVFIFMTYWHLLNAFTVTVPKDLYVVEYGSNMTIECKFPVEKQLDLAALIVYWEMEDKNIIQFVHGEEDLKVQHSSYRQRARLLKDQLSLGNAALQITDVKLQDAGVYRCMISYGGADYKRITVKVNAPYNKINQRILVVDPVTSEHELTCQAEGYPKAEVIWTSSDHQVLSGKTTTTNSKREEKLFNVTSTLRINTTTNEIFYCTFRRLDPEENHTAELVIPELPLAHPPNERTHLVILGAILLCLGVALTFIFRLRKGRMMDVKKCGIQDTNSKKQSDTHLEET
testMethodNotes: Inhibition of His-tagged human recombinant PD-L1 incubated for 15 mins by LANCE Ultra TR-FRET assay
reportedMetric: pEC50
Formally, pEC50 is defined as -log10 of the concentration c, with c in mol/L.

Asked: Identify measured pEC50 corresponding to C[C@H](O)[C@H](NC(=O)N[C@@H](CC(N)=O)c1nc([C@@H](N)CO)no1)C(=O)O
Given back: 7.18

----------
measuredTarget: V-type immunoglobulin domain-containing suppressor of T-cell activation (Homo sapiens)
testMethodNotes: Binding affinity to recombinant human VISTA ECD incubated for 2 hrs by ELISA assay
reportedMetric: pIC50
Please keep in mind that pIC50 is minus log10 of the molar concentration; only the number is needed.

Asked: Param request: pIC50 | system V-type immunoglobulin domain-containing suppressor of T-cell activation (Homo sapiens) | item CN(C)c1n/c(=N\Cc2ccco2)ss1
Given back: 5.01

----------
measuredTarget: V-type immunoglobulin domain-containing suppressor of T-cell activation (Homo sapiens)
testMethodNotes: Inhibition of VISTA (unknown origin) incubated for 15 mins by LANCE Ultra TR-FRET assay
reportedMetric: pEC50
Schema: pEC50 number; meaning minus log10 of the concentration expressed in molar units.

Asked: Indicate the recorded pEC50 value for this compound: C[C@H](O)[C@H](NC(=O)N[C@@H](CC(N)=O)c1nc([C@@H](N)CO)no1)C(=O)O
Given back: 7.08

----------
measuredTarget: V-type immunoglobulin domain-containing suppressor of T-cell activation (Homo sapiens)
Sequence (Q9H7M9 whole entry): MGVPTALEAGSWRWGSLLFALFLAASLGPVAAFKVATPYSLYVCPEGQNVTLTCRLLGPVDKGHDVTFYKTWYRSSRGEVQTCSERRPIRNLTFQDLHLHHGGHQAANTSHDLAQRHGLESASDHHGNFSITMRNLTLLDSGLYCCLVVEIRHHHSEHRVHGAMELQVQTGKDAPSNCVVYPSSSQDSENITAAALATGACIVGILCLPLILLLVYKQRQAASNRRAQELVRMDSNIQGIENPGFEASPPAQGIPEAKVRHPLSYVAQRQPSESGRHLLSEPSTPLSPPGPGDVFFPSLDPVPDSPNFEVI
testMethodNotes: Binding affinity to recombinant human His-tagged VISTA ECD incubated for 2 hrs by TR-FRET assay
reportedMetric: pIC50
On this scale, pIC50 is minus log10 of a concentration expressed in M (mol/L).

Asked: Provide pIC50 value for the following compound: CN(C)c1n/c(=N\Cc2ccco2)ss1
Given back: 5.32
